Biological target: His-14-3-3ζ (Homo sapiens, UniProt P63104)
Construct: made in house; host or cells: Escherichia coli BL21 LOBSTR-RIL
Sequence (P63104 1-245): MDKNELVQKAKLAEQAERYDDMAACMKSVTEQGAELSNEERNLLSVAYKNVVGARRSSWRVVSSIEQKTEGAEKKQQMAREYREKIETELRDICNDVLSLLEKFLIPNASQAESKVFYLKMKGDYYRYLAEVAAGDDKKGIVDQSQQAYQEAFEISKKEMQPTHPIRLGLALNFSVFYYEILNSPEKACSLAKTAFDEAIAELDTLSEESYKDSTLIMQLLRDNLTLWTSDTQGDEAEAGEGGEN
Test: Surface plasmon resonance (SPR) on immobilized His-14-3-3ζ
Format: binding
Conditions: SPR fit, value repeated per curve

{"molecule": "OC1(c2ccc(Cl)c(C(F)(F)F)c2)CCN(CCCC(c2ccc(F)cc2)c2ccc(F)cc2)CC1 [Penfluridol]", "Kd / nM": 1350}
{"molecule": "O=C(NC1CCN(CCCCC2(C(=O)NCC(F)(F)F)c3ccccc3-c3ccccc32)CC1)c1ccccc1-c1ccc(C(F)(F)F)cc1 [Lomitapide]", "Kd / nM": 858}
{"molecule": "CCCCCCCCc1ccc(CCC(N)(CO)CO)cc1 [Fingolimod (FTY720), Fingolimod]", "Kd / nM": 10600}
{"molecule": "CC(C)(C)c1ccc(C(O)CCCN2CCC(C(O)(c3ccccc3)c3ccccc3)CC2)cc1 (stereo not shown) [Terfenadine]", "Kd / nM": 2960}
